Values were extracted from PubChem BioAssay (NCI).

- System: M14 melanoma
Just give me one of these, please: y (active), n (inactive)

Known results for compounds:
COMPOUND	SYSTEM_TESTED	ASSIGNED_CATEGORY
NNc1cccc(/C=C/c2ccccc2)cc1=O	M14 melanoma	n
CC(C)c1ccc(C(=O)Nc2sc3c(c2C#N)CCC(=O)C3)cc1	M14 melanoma	n
COc1cc(/C=C\[N+](=O)[O-])ccc1OCc1ccccc1	M14 melanoma	n
CCNC(=O)C#CC(=O)NCC	M14 melanoma	n
CCN1C(=S)N(CC)C2C1NC(=S)N2/N=C/C=C/c1ccccc1 (centres undefined)	M14 melanoma	n

Identify the outcome logged in this assay for the compound shown: N#Cc1c(-c2ccccc2)cc(-c2ccc(Nc3nc(Nc4ccc(Cl)cc4)nc(Nc4ccc(Cl)cc4)n3)cc2)nc1N
n

Identify the outcome logged in this assay for the compound shown: C=C1C(=O)O[C@H]2[C@H]1CC/C(COC(=O)NCc1ccc(Cn3c(=O)sn(CCCCl)c3=O)cc1)=C\CC[C@@]1(C)O[C@@H]21
n

Identify the outcome logged in this assay for the compound shown: COc1ccc(-c2cc(/C=C3\C(=O)Nc4ccc(Cl)cc43)[nH]n2)cc1
n

Identify the outcome logged in this assay for the compound shown: Cc1nc2ccc(Nc3nc(NCCN4CCOCC4)nc(Nc4ccc(F)cc4)n3)cc2n1Cc1ccccc1
n

Identify the outcome logged in this assay for the compound shown: O=C(Nc1ccc(F)cc1)c1c(NC(=O)C(F)(F)F)sc2c1CCCCC2
n

Identify the outcome logged in this assay for the compound shown: O=[N+]([O-])c1ccc(N/N=C/c2c(O)ccc3ccccc23)nc1
n

Identify the outcome logged in this assay for the compound shown: COc1cc2c3c(n(CCCNCCN)c(=O)c2cc1OC)-c1cc2c(cc1C3=O)OCO2
n

Identify the outcome logged in this assay for the compound shown: O=S(=O)(NCC1CCC(CNc2ccc(Cl)cc2)CC1)c1ccc(-c2ccccc2)cc1 (centres undefined)
n

Identify the outcome logged in this assay for the compound shown: COC(=O)c1c2c(c(C)[n+]([O-])c1C)C(=O)C=C(NCc1ccc(F)c(F)c1)C2=O
y

###

- Test system: SR leukemia
Just give me one of these, please: active, inactive

Known results for compounds:
COMPOUND	ASSIGNED_CATEGORY
Cc1nc2sc(C(=O)Nc3cccc4ccccc34)c(N)c2cc1C(=O)c1ccccc1	inactive
NC(=O)c1cc(Br)cc(C2CCCCC2)c1O	inactive
O=C(NCCCNc1cc(-c2cn(-c3ccccc3)nc2-c2cccc(O)c2)ccn1)c1ccccc1	inactive
CC/C=C\C[C@H](O)C/C=C1/C(=O)C=C[C@@H]1C/C=C\CCCC(=O)N(C)C	active
COc1ccc2c(Nc3ccc(NS(C)(=O)=O)cc3)c3ccccc3nc2c1	active
Cn1c(=O)c(Oc2ccccc2F)cc2cnc(NC3CCOCC3)nc21	inactive

Identify the outcome logged in this assay for the compound shown: Cc1sc(C)c(Cc2c(C)sc(C)c2CCl)c1CCl
inactive

Identify the outcome logged in this assay for the compound shown: ClC(Cl)c1nc(-c2cccnc2)n2nc(-c3ccccc3)cc2n1
active

Identify the outcome logged in this assay for the compound shown: COc1ccc(-c2cc(/C=C3\C(=O)Nc4ccc(Cl)cc43)[nH]n2)cc1
inactive

Identify the outcome logged in this assay for the compound shown: COC1CC2C=C(C)/C=C/C=C/C(=O)NC(c3ccccc3)C/C=C/CCC(O)CC(=O)C2=C1O (configuration not stated)
active

Identify the outcome logged in this assay for the compound shown: COc1cc(/C=C\[N+](=O)[O-])ccc1OCc1ccccc1
inactive

Identify the outcome logged in this assay for the compound shown: N=C(N=C(N)N)N1CCN(c2ccncc2)CC1
inactive
